# experimentalSystem: pooled human IgG (human IgG1, 2, 3 and 4)
experimentalEndpoint: Enzyme Activity Endpoint Assay (purified): Fab′2 (ng/µL)
Report the value in ng/µL with no unit label.

Task item: Complete the entry with Enzyme Activity Endpoint Assay (purified): Fab′2 for PRT-457 (protein) MVTSVWTKGVTPPTDFIKGEDVFHAPYKAGQGWYDITKAFDGGDDLLCGAATAGNMLHWWFDQNKDQIEAYLKEHPEKQKINFNGEQMFDVKEAIDTKDDQTNSELFNYFKEKAFPYLSTKHLGVFPDHVLDMFINGYRLSLTNHGPTPVKRQEKDPRGGIFDAVFGRGDQTKLLTSRHDLKNKTLKEISDLIKQELTEGKALALSHTYANVRINHVINLWGADFDSNGNLEAIYVTDSDSNASIGMKKYFVGVNSAGKVAISAKEIEDDNIGAQVLGLFTLSTGQKIWNKTNLEHHHHHH
Reply: 450

src = patent US20250027068
